Listed next: entries and their corresponding melting point.

**Q:** Give a short answer stating reported melting point for CCc1nc2c(c(C)c(C)n3nnnc23)n1CCOCCN1CCCC1=O .
**A:** 141 to 143 °C

**Q:** Identify measured melting point corresponding to O=C1OC(=O)c2c(Sc3ccc(Cl)c(Cl)c3)cc([N+](=O)[O-])cc21
**A:** 154 to 157 °C

**Q:** Find the measured melting point of CCCCCCCCCCCCC(C)CNc1cc(C)c([N+](=O)[O-])cc1C(=O)O (stereo not given) and report it.
**A:** 98 to 100 °C

**Q:** Indicate its recorded melting point; the molecule in question is C=Cc1nc(C(C)C)c(Sc2cc(Cl)cc(Cl)c2)n1C
**A:** 124 to 125 °C

**Q:** Quick one: give measured melting point for CC(=O)OCC1SC(Oc2cc(C)cc(O)c2C(C)=O)C(OC(C)=O)C(OC(C)=O)C1OC(C)=O (stereo not given)
**A:** 162 to 164 °C

**Q:** Quote melting point reported for Cc1cc2c(c(C)n1)c(=O)oc1ccccc12 please.
**A:** 194 to 197 °C

**Q:** Please give measured melting point of the following entry: CC(C)(C)NC(=O)OC1OCN(c2cccc(C(F)(F)F)c2)C1=O (stereo not given)
**A:** 125 to 126 °C

**Q:** Indicate its recorded melting point; the molecule in question is COc1cc(OC)nc(Oc2cccc3c2C(=O)OC3SC#N)n1 (stereo not given)
**A:** 161 to 163 °C

**Q:** Note down melting point recorded for COc1ccc(-c2ccc(O)c(C3(C)CCCCC3)c2)cc1CC1SC(N2CCCC2)=NC1=O (stereo not given)
**A:** 121 to 122 °C

**Q:** Query melting point for COc1cc2c(cc1Cl)C(c1ccccc1Cl)C(=O)N2 (stereo not given)
**A:** 243 to 247 °C

###

Each entry below lists one item and its recorded melting point value.

Example entries begin here.
>  <compound>
CC(C)=NOCc1nc2c(N)nc3cc(Br)ccc3c2s1

>  <melting point>
211 to 213 °C

$$$$
>  <compound>
O=C(O)c1ccc(OCCn2ncc3nc(C(=O)NCc4cccc(OCCOc5nc[nH]n5)c4)[nH]c(=O)c32)cc1

>  <melting point>
176 to 178 °C

$$$$
>  <compound>
Cc1cc2ccccc2nc1NN

>  <melting point>
128 °C

$$$$
>  <compound>
CC(CS)C(=O)NC(CCCNC(=N)N)C(=O)O (centres undefined)

>  <melting point>
100 °C

$$$$
>  <compound>
CCSC(C)(C)C(=O)CC(=O)Nc1cc(NC(=O)C(CC)Oc2ccc(C(C)(C)CC)cc2C(C)(C)CC)ccc1Cl (centres undefined)

>  <melting point>
65 to 68 °C

$$$$

**Q:** Could you please provide reported melting point for Cc1c(CC(=O)O)c2cc(OCc3ccc4ccccc4n3)ccc2n1C ? Thanks!
**A:** 186 to 188 °C

**Q:** Please look at this compound and report its melting point: CC(C)(C)OC(=O)NCC12CN(c3cc4c(cc3F)c(=O)c(C(=O)O)cn4C3CC3)CC1CCO2 (centres undefined)
**A:** 235 to 237 °C

**Q:** Please give the documented melting point of Cc1ccc(C2=CCNCC2)nc1
**A:** 78 to 80 °C

**Q:** Check the records and state melting point for CN1C(c2cccc(F)c2)c2ccccc2S1(=O)=O (single isomer, unassigned; (+))
**A:** 147 °C
